// provenance: patent US10034861B2

- measured-target: UniProt:P54750
- Sequence (P54750 whole entry): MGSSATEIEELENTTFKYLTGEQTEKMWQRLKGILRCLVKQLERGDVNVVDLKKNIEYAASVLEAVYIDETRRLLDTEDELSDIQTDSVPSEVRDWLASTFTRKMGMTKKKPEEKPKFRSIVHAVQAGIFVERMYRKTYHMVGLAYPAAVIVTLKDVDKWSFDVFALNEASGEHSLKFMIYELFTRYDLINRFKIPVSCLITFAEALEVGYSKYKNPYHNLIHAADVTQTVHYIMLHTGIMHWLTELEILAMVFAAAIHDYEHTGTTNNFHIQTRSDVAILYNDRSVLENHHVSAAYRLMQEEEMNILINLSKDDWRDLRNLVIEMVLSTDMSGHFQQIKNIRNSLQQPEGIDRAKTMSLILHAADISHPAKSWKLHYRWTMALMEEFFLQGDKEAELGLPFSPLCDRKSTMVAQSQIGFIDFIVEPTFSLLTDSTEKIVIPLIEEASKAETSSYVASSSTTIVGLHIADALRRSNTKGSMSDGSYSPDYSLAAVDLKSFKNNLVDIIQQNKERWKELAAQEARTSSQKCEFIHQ
- assay-protocol: biochemical
- Assay type: biochemical
- study-conditions: 15 nM tritium labelled cAMP, 1 hr at room temperature, SPA beads
In this section we review reported pIC50 values for a set of compounds.
Note on units: pIC50 is unitless, being -log10 of a concentration expressed in mol/L.

Solved cases (3 shown):
| compound | measured-target | experimental-result |
| --- | --- | --- |
| Cc1nn(C)cc1-c1cc(NCc2cnn(C)c2)c2c(n1)c(C)nn2C(C)C | UniProt:P54750 | 6.26 |
| CCOc1ncccc1-c1cc(NCc2c[nH]cn2)c2c(n1)c(C)nn2C(C)C | UniProt:P54750 | 7.85 |
| CCOc1ncccc1-c1cc(NCc2cnc(OC)cn2)c2c(n1)c(C)nn2C(C)C | UniProt:P54750 | 7.62 |

IN: Looking for the measured pIC50 of `Cc1sccc1-c1cc(NCc2cnn(C)c2)c2c(n1)c(C)nn2C(C)C` , can you help?
OUT: 8.10

IN: Similarly, CCOc1ncccc1-c1cc(NCc2ncn(C)n2)c2c(cnn2C(C)CC)n1 (single isomer, unassigned) [Example 140] ?
OUT: 7.49

IN: Similarly, `CCOc1ncccc1-c1cc(NCc2nc(C)no2)c2c(n1)c(C)nn2C(C)C` ?
OUT: 7.82

---

- measured-target: PDE1B (Homo sapiens (Human))
- Sequence (Q01064 whole entry): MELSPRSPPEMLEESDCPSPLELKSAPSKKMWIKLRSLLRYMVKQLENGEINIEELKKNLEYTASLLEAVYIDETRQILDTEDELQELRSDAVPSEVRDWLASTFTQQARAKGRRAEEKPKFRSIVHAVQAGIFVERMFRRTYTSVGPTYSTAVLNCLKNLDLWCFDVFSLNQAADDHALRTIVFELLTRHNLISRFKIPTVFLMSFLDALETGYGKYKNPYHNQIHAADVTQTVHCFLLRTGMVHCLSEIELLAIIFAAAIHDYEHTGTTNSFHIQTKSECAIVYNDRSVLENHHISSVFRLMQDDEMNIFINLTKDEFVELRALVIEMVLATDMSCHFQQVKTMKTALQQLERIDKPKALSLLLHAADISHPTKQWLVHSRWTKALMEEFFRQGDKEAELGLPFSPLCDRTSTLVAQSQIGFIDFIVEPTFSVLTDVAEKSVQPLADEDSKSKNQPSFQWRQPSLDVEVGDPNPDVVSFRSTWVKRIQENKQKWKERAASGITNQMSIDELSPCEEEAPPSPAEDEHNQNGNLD
- assay-protocol: PDE1 inhibition assay (PDE1B)
- Format: biochemical
- study-conditions: 15 nM tritium labelled cAMP, 1 hr at room temperature, SPA beads; read-out: PDE1B, IC50
value-type: IC50 (nM)
Response body: numeric value in nM, unit text excluded.

Solved cases (4 shown):
| compound | unit-descriptor | IC50 |
| --- | --- | --- |
| CCOc1ncccc1-c1cc(NCc2cccc(C)n2)c2c(n1)c(C)nn2C(C)C [Example 101] | nM | 0.9 |
| CCOc1ncccc1-c1cc(NCc2nccn2C)c2c(cnn2C(C)C)n1 [Example 17] | nM | 54 |
| CCOc1ncccc1-c1cc(NCc2cncc(OC)n2)c2c(n1)c(C)nn2C(C)C [Example 82] | nM | 1 |
| Cc1nn(C(C)C)c2c(NCc3cnn(C)c3)cc(N3CCC3=O)nc12 [Example 152] | nM | 32 |

IN: Looking for the measured IC50 of CCCOc1ncccc1-c1cc(NCc2nc[nH]n2)c2c(n1)c(C)nn2C(C)C [Example 146] , can you help?
OUT: 0.51

IN: Similarly, Cc1sccc1-c1cc(NCc2cnn(C)c2)c2c(n1)c(C)nn2C(C)C [Example 65] ?
OUT: 1.2

IN: Similarly, CCOc1ncccc1-c1cc(NCc2cc(C)cs2)c2c(n1)c(C)nn2C(C)C [Example 35] ?
OUT: 1.7

---

- measured-target: PDE1C (Homo sapiens (Human))
- Sequence (Q14123 whole entry): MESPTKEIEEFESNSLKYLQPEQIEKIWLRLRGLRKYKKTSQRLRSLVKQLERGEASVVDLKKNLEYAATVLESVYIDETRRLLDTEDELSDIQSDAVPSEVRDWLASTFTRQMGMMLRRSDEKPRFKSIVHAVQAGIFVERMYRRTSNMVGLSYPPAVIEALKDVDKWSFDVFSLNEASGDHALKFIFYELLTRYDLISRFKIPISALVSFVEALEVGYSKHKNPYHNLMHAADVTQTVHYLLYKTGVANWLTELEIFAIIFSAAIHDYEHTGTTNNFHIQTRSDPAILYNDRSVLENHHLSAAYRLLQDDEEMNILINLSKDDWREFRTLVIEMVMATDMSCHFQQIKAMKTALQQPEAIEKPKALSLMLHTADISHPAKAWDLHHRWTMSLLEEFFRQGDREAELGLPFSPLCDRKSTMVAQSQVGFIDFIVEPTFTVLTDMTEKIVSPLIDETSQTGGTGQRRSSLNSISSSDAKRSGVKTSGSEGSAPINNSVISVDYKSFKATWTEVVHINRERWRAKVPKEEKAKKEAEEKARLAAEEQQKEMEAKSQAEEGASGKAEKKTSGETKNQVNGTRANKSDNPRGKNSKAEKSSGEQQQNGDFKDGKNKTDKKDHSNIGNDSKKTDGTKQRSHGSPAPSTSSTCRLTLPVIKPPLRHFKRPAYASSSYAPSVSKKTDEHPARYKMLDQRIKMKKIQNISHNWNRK
- assay-protocol: biochemical
- Type: biochemical
- study-conditions: 15 nM tritium labelled cAMP, 1 hr at room temperature, SPA beads
Sorting guide: entries reporting IC50 beneath 40 nM go in the y pile, the rest go in the n pile.

Check out these entries, answers already filled in.
| compound | label-class |
| --- | --- |
| CCOc1ncccc1-c1cc(NCc2cccnc2C)c2c(n1)c(C)nn2C(C)C | y |
| CCOc1ncccc1-c1cc(NCc2cc(C)n(C)n2)c2c(n1)c(C)nn2C(C)C | y |
| CCCOc1ncccc1-c1cc(NCc2nc[nH]n2)c2c(n1)c(C)nn2C(C)C | y |
| Cc1nn(C(C)C)c2c(NCc3cnn(C)c3)cc(-c3nncn3C)nc12 | n |
| CCOc1ncccc1-c1cc(NCc2cn[nH]c2)c2c(n1)c(C)nn2C(C)C | y |

IN: Confirm or reject: IC50 of `COc1ncccc1CNc1cc(-c2cccnc2OC(F)F)nc2c(C)nn(C(C)C)c12` lies strictly below 40 nM
OUT: n

IN: Similarly, `CCOc1ncccc1-c1cc(NCc2ncn(C)n2)c2c(cnn2C(C)C)n1` ?
OUT: n

IN: Similarly, `CCOc1ncccc1-c1cc(NCc2cc(OC)ncn2)c2c(n1)c(C)nn2C(C)C` ?
OUT: y

IN: Similarly, `CCOc1ncccc1-c1cc(NCc2ncccc2OC)c2c(n1)c(C)nn2C(C)C` ?
OUT: n

IN: Similarly, `COc1ncccc1CNc1cc(-c2cccnc2OC2CC2)nc2c(C)nn(C(C)C)c12` ?
OUT: n

IN: Similarly, CCC1COC(=O)N1c1cc(NCc2cnn(C)c2)c2c(n1)c(C)nn2C(C)C (stereo not drawn) ?
OUT: y

IN: Similarly, `CCOc1ncccc1-c1cc(NCc2cc[nH]n2)c2c(n1)c(C)nn2C(C)C` ?
OUT: y
